Tested on: Pseudomonas aeruginosa
Experiment: Antibacterial activity against Pseudomonas aeruginosa SR24
Type: functional
observed_property: MIC (µg/mL)
# output: bare number, implied unit µg/mL

> print(dat)
                           structure.string             test.target  data.value
1  C[C@@H](O)[C@H]1C(=O)N2C(C(=O)[O-])=C(/C=C/COC(N)=O)[C@H](C)[C@H]12.[Na+]  Pseudomonas aeruginosa          50
2  C[C@@H](O)[C@H]1C(=O)N2C(C(=O)[O-])=C(/C=C/CSc3nncs3)[C@H](C)[C@H]12.[Na+]  Pseudomonas aeruginosa         100
3  C[C@@H](O)[C@H]1C(=O)N2C(C(=O)[O-])=C(/C=C/C[n+]3ccccc3)[C@H](C)[C@H]12  Pseudomonas aeruginosa         1.6

Note down MIC recorded for C[C@@H](O)[C@H]1C(=O)N2C(C(=O)[O-])=C(/C=C/c3ccc[n+](C)c3)[C@H](C)[C@H]12
25

Note down MIC recorded for C[C@@H](O)[C@H]1C(=O)N2C(C(=O)[O-])=C(C[n+]3cccc(N)c3)[C@H](C)[C@H]12
1.6

Note down MIC recorded for C[C@@H](O)[C@H]1C(=O)N2C(C(=O)[O-])=C(C[n+]3ccc(-c4cnco4)cc3)[C@H](C)[C@H]12
1.6

Note down MIC recorded for Cc1ccc[n+](CC2=C(C(=O)[O-])N3C(=O)[C@H]([C@@H](C)O)[C@H]3[C@H]2C)c1
1.6

---

log10 MIC: recorded values
System: Escherichia coli
Experiment: Antibacterial activity against Escherichia coli NIHJ JC-2
Assay type: functional
Could you please treat all values as log10 of MIC in µg/mL?

Note down log10 MIC recorded for C[C@@H]([O-])[C@H]1C(=O)N2C(C(=O)[O-])=C(/C=C/Cn3cc[n+]4ccccc34)[C@H](C)[C@H]12.[Na+]
-1.00

Note down log10 MIC recorded for C[C@@H](O)[C@H]1C(=O)N2C(C(=O)[O-])=C(/C=C/c3ccc[n+](C)c3)[C@H](C)[C@H]12
-1.00

Note down log10 MIC recorded for C/C(=C\C1=C(C(=O)[O-])N2C(=O)[C@H]([C@@H](C)O)[C@H]2[C@H]1C)C[n+]1ccccc1
-1.00

Note down log10 MIC recorded for C[C@@H](O)[C@H]1C(=O)N2C(C(=O)[O-])=C(C[n+]3ccc(-c4cnco4)cc3)[C@H](C)[C@H]12
-0.70

Note down log10 MIC recorded for C[C@@H](O)[C@H]1C(=O)N2C(C(=O)[O-])=C(/C=C/CSc3nncs3)[C@H](C)[C@H]12.[Na+]
0.49

Note down log10 MIC recorded for C[C@@H](O)[C@H]1C(=O)N2C(C(=O)[O-])=C(C[n+]3cccc(C(N)=O)c3)[C@H](C)[C@H]12
-0.40

Note down log10 MIC recorded for C[C@@H](O)[C@H]1C(=O)N2C(C(=O)[O-])=C(/C=C/C[n+]3ccccc3)[C@H](C)[C@H]12
-1.30

Note down log10 MIC recorded for C[C@@H](O)[C@H]1C(=O)N2C(C(=O)[O-])=C(C[n+]3ccc(C(N)=O)cc3)[C@H](C)[C@H]12
-0.40

Note down log10 MIC recorded for C[C@@H]([O-])[C@H]1C(=O)N2C(C(=O)[O-])=C(/C=C/C[N+]34CCC(CC3)CC4)[C@H](C)[C@H]12.[Na+]
-0.70

Note down log10 MIC recorded for C[C@@H](O)[C@H]1C(=O)N2C(C(=O)O)=C(SCCNC=N)C[C@H]12 [IMIPENEM ANHYDROUS]
-1.00

Note down log10 MIC recorded for C[C@@H]([O-])[C@H]1C(=O)N2C(C(=O)[O-])=C(/C=C/CSc3cc[n+](C)cc3)[C@H](C)[C@H]12.[Na+]
-0.70

Note down log10 MIC recorded for C[C@@H](O)[C@H]1C(=O)N2C(C(=O)[O-])=C(C[n+]3cccc(N)c3)[C@H](C)[C@H]12
-0.70

Note down log10 MIC recorded for C[C@@H](O)[C@H]1C(=O)N2C(C(=O)[O-])=C(/C=C/c3cc[n+](C)cc3)[C@H](C)[C@H]12
-0.40

Note down log10 MIC recorded for C[C@@H](O)[C@H]1C(=O)N2C(C(=O)[O-])=C(/C=C/COC(N)=O)[C@H](C)[C@H]12.[Na+]
-0.70
